Value source: paper PMC10720262

Molecular target: PfCSP full length (Plasmodium falciparum (isolate NF54), UniProt P19597)
Sequence (P19597 20-375): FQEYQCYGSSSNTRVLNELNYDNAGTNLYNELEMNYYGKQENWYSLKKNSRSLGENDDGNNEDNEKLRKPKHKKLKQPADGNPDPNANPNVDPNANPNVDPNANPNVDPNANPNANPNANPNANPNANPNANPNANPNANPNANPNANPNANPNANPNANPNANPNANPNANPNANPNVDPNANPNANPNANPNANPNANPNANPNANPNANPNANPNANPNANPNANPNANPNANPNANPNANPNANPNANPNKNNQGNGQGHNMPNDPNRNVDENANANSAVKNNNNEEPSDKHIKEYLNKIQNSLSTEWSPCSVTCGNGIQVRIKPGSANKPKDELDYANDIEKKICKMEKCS
Test: ELISA AUC
measuredProperty: binding score

INSERT INTO measurements (binder, measuredproperty, recordedvalue) VALUES
  ('CL-511862 (antibody, V domains shown, peptides N-terminally acetylated and C-terminally amidated) VH: QVQLVESGGGVVQPGKSLRLSCAASGFSFSSSGMHWVRQAPDKGLEWVAIIWYDGSHKFYADSVKGRFTISRDNSDNTLFLQMDSLRAEDTAVYYCVRAYPTSYNGNYDKYGMDVWGQGTTVTVSS VL: DIQMTQSPSTLSASVGDRVTIACRASQSISTWLAWYQQKPGKAPKLLIYKASTLESGVPSRFSGSGSGTEFTLTISSLQPDDFATYYCQQFTFYWTFGQGTKVEIK', 'binding score', 2.53),
  ('CL-515284 (antibody, V domains shown, peptides N-terminally acetylated and C-terminally amidated) VH: QVQLVGSGGGVVQSGRSLRLSCAASGFTFSNFGMHWVRQTPDKGLEWLAIIWYDGSHKFYVDSVKGRFTISRDNSMNTLFLQMNSLRAEDTGVYYCVRSWNYADSKYGMDVWGQGTTVTVSS VL: DIQMTQSPSTLSASVGDRVTITCRASQSISSWLAWYQQKPGKAPNLLIYKASSLESGVPSRFSGSGSGTEFTLTISSLQPDDFATYYCQQYYNYWTFGQGTKVEIK', 'binding score', 2.19);
